Every entry's value here was drawn from PubChem BioAssay (NCI).

Tested on: LOX IMVI melanoma
METHOD_NOTES: NCI-60 one-dose screen, 48 h
STUDY_CONDITIONS: 10 µM
The panel holds about 83,000 compounds, 20% with a hit somewhere; the sample as a whole holds those more often. Calls of active or inactive are those of the source. How the source made its calls: active means growth percent below 10; inactive means the rest.
Classes used: active, inactive

{"columns": ["MOLECULE", "CATEGORY"],
 "data": [
  ["Cc1nc2sccn2c1-c1csc(Nc2cccc(Cl)c2C)n1", "inactive"],
  ["C/C(=N\\NC(=S)N1CCCC1)c1ccccn1", "active"],
  ["COc1cc(OC)cc(N2CCN(C(=O)Nc3nc4cc(F)ccc4nc3OC)CC2)c1", "inactive"],
  ["Nc1ncc(-c2ccc(C(F)(F)F)cc2)c(NC2CCCCCC2)n1", "inactive"],
  ["FC(F)(F)c1ccc(-c2ncc(-c3ccc(C(F)(F)F)cc3)c(NCc3cc(C(F)(F)F)cc(C(F)(F)F)c3)n2)cc1", "inactive"]
]}

* * *

Test system: UACC-257 melanoma
METHOD_NOTES: NCI-60 one-dose screen, 48 h (100 = growth as untreated, 0 = no growth, -100 = all killed)
STUDY_CONDITIONS: 10 µM
Compounds without any hit were thinned out: in the full panel of roughly 83,000, 20% have a hit.
Please note: growth exactly at 80% is Not fulfilled. Only values below 80% get Fulfilled.

{"columns": ["COMPOUND", "CATEGORY"],
 "data": [
  ["O=c1oc2cc(OS(=O)(=O)C3CC3)ccc2c2c1CCCCCC2", "Not fulfilled"],
  ["Cc1ccccc1[P+](Cc1ccccc1)(c1ccccc1)c1ccccc1", "Fulfilled"],
  ["CC1(C)Cc2c(cn(Cc3ccccc3)c2-c2ccccc2)-c2oncc21", "Not fulfilled"],
  ["COC(=O)C1(C(=O)OC)C2C(=O)C3C(C21)C3(C(=O)OC(C)(C)C)C(=O)OC(C)(C)C (configuration not stated)", "Not fulfilled"],
  ["COc1cc(C2C(C#N)=C(c3c[nH]c4ccccc34)Nc3nc(N)[nH]c(=O)c32)cc(OC)c1OC (configuration not stated)", "Not fulfilled"],
  ["S=C(Cc1ccc(-c2ccccc2)cc1)N1CCOCC1", "Not fulfilled"],
  ["Cc1cc(C)c2nc(C)c(C)[n+]([O-])c2c1", "Not fulfilled"],
  ["CC(=O)Nc1nc(C)c(C(=O)N/N=C/c2cccn2C)s1", "Not fulfilled"],
  ["FC(F)(F)c1ccc(-c2cnc(Cl)nc2NCc2cc(C(F)(F)F)cc(C(F)(F)F)c2)cc1", "Fulfilled"],
  ["[O-]c1c[n+](-c2ccc(Cl)cc2)no1", "Not fulfilled"],
  ["COc1ccc(Nc2ccnc(N3CCN(c4ccnc5cc(Cl)ccc45)CC3)n2)cc1", "Fulfilled"],
  ["Fc1ccc(Nc2ccnc(N3CCN(c4ccnc5cc(Cl)ccc45)CC3)n2)cc1", "Fulfilled"],
  ["COc1ccc2nc(NC(=O)Nc3c(F)cccc3F)sc2c1", "Not fulfilled"],
  ["CCCCCC(=O)N1c2ccccc2NC2=C(C(=O)CC(c3ccc(OC)c(OC)c3)C2)C1c1ccc(C(F)(F)F)cc1 (configuration not stated)", "Fulfilled"],
  ["COc1ccc(-c2cc(/C=C3\\C(=O)Nc4cc(Cl)ccc43)[nH]n2)cc1", "Fulfilled"],
  ["COc1cc(N=C2C(=O)N(Cc3ccccc3)c3ccccc32)cc(OC)c1OC", "Not fulfilled"],
  ["CCn1nc(-c2ccccn2)c2cccnc2c1=S", "Fulfilled"],
  ["CCN(CC)CC(O)CNc1ccnc2cc(Cl)c(Cl)cc12 (configuration not stated)", "Not fulfilled"],
  ["O=C1/C(=C/c2ccc(O)cc2)CSc2ccc(Cl)cc21", "Not fulfilled"],
  ["COc1cc(OC)cc(N2CCN(C(=O)Nc3nc4cc(F)ccc4nc3OC)CC2)c1", "Fulfilled"],
  ["O=C(Nc1ccc(OS(=O)(=O)Cc2ccccc2)cc1)C12CC3CC(CC(C3)C1)C2", "Not fulfilled"],
  ["CC(=O)c1c(O)cc2c3c1OC(C)(C)C1CCC(C)(CC31)O2 (configuration not stated)", "Not fulfilled"],
  ["Cc1ccc(NC(=O)/C=N/O)cc1C", "Not fulfilled"],
  ["O=C1/C(=C/c2ccc(O)cc2O)N=C2SCCCN12", "Not fulfilled"],
  ["Oc1ccc(Cn2cc3c(c2-c2ccccc2)CCc2cnoc2-3)cc1", "Not fulfilled"],
  ["Cc1ccc(C)c(S(=O)(=O)NC2c3ccccc3Oc3ccccc32)c1", "Not fulfilled"],
  ["COc1ccc(C2C=C(c3ccc(Cl)c(Cl)c3)N=C3SC(C)=CN32)cc1 (configuration not stated)", "Not fulfilled"],
  ["CCCc1c(CC)c(=N)c2ccccc2n1C", "Fulfilled"],
  ["CCN(CC)CC(O)Cc1ccc(OC)cc1 (configuration not stated)", "Not fulfilled"],
  ["COC(=O)[C@]12CC[C@@H](C)[C@H](C)[C@@H]1C1=CC[C@@H]3[C@@]4(C)CC(=O)[C@H](O)[C@@](C)(CO)[C@@H]4C(=O)C[C@@]3(C)[C@]1(C)CC2", "Fulfilled"],
  ["CC(C)c1[nH]nc2c(NCc3ccc(-c4ccccn4)cc3)nc(SCCN(C)C)nc12", "Fulfilled"],
  ["CN(C)CCCN(Cc1ccccc1O)C(=S)Nc1ccc(Cl)cc1", "Not fulfilled"],
  ["Cc1ccc(Cl)cc1Nc1nc(C(F)(F)F)ccc1C(=O)N/N=C/c1c(Cl)cccc1Cl", "Fulfilled"],
  ["CCNC1(NC#N)CCCCC1", "Not fulfilled"],
  ["C=CCOc1ccc2c(c1)CC[C@@H]1[C@@H]2CC[C@]2(C)C(=O)/C(=N/O)C[C@@H]12", "Fulfilled"],
  ["COc1ccc(C(C)=O)cc1N1C(=O)C2C(C1=O)C1(c3ccccc3)C(=O)C2(c2ccccc2)C(c2ccc(C)cc2)=C1c1ccc(C)cc1 (configuration not stated)", "Fulfilled"],
  ["Cc1cc(C)c(C(=O)OC(C)CNC2CCCCC2)c(C)c1 (configuration not stated)", "Not fulfilled"],
  ["CCOC(=O)C1=C(Nc2ccc(OC)cc2)C(N)=NC1=N", "Fulfilled"],
  ["Cc1cc(/C=C2\\SC(=Nc3ccccc3)N(C3CCCC3)C2=O)c(C)n1-c1ccc(Cl)cc1", "Fulfilled"],
  ["CC(Oc1ccc(Cl)cc1)c1ccccc1 (configuration not stated)", "Not fulfilled"],
  ["COc1cccc2c1C(=O)c1c(O)c3c(c(O)c1C2=O)C[C@@](O)(C(=O)COC(=O)c1cccnc1)C[C@@H]3OC1CC(N)C(O)C(C)O1 (some centres not stated)", "Fulfilled"]
]}

* * *

Tested on: A498 renal
METHOD_NOTES: NCI-60 one-dose screen, 48 h (100 = growth as untreated, 0 = no growth, -100 = all killed)
STUDY_CONDITIONS: 10 µM
Compounds without any hit were thinned out: in the full panel of roughly 83,000, 20% have a hit.
Outcome label depends on growth relative to 70%: at/above gives YES, below gives NO.

{"columns": ["MOLECULE", "CATEGORY"],
 "data": [
  ["Cc1cc(C)c(C(=O)OC(C)CNC2CCCCC2)c(C)c1 (stereo not given)", "YES"],
  ["CC1(C)Cc2c(cn(Cc3ccccc3)c2-c2ccccc2)-c2oncc21", "YES"],
  ["Cc1ccc(/C=C2\\CN(Cc3cn(CCNc4ccnc5cc(Cl)ccc45)nn3)C/C(=C\\c3ccc(C)cc3)C2=O)cc1", "NO"],
  ["COc1cc(Cl)cc(-c2nn(-c3cccc(NC(=O)Nc4cccc(C(F)(F)F)c4)c3)cc2-c2ccncc2)c1", "NO"],
  ["Cc1ccc2c(c1)-c1cc(C)nn1-c1ccc(C#N)cc1O2", "NO"],
  ["COc1cc(C2=Nc3c/c(=C\\c4c(O)[nH]c5ccc(Cl)cc45)ccc3=N2)cc(OC)c1OC", "YES"],
  ["Clc1cc(Cl)c(Cl)c(-c2nc(-c3cccnc3)cs2)c1", "YES"],
  ["FC(F)(F)c1ccc(-c2nc(-c3nc4cc(Cl)c(Cl)cc4[nH]3)c3ccccn23)cc1", "NO"],
  ["CC(=O)OCC(COC(C)=O)(COC(C)=O)COC(C)=O", "YES"],
  ["COc1ccc2oc(=O)cc(C(c3ccc[nH]3)c3ccc[nH]3)c2c1", "NO"]
]}

* * *

Tested on: NCI/ADR-RES ovarian
METHOD_NOTES: NCI-60 one-dose screen, 48 h (100 = growth as untreated, 0 = no growth, -100 = all killed)
STUDY_CONDITIONS: 10 µM
About 83,000 compounds went through this panel and 20% of them were active in at least one assay; those are over-represented in the sample as a whole. Active and inactive are the calls of the source. Rule for the calls: active = growth percent below 10; inactive = the rest.
The entries below are paired with their reported growth.

{"columns": ["COMPOUND", "growth"],
 "data": [
  ["COC(=O)c1cnc2c(c1)Oc1ccccc1-c1ccnn1-2", "105% (inactive)"],
  ["COc1ccc(C2CC(c3ccc(-c4ccccc4)cc3)=NN2c2ccc(S(N)(=O)=O)cc2)cc1 (configuration not stated)", "60.7% (inactive)"],
  ["N#Cc1c2c([nH]c(=O)c1C(N)=O)CCCCC2", "111% (inactive)"],
  ["CC(C)OCc1cc(CN2CCN(c3cccc(Cl)c3)CC2)c(O)c2ncccc12", "-27.3% (active)"],
  ["COc1cc(Nc2ccnc(N3CCN(c4ccnc5cc(Cl)ccc45)CC3)n2)cc(OC)c1", "7.19% (active)"],
  ["CCOC(=O)C(=O)Cc1cccnn1", "104% (inactive)"],
  ["COc1ccc(-c2[nH]ncc2-c2cc(OC)c(OC)c(OC)c2)cc1", "14.5% (inactive)"],
  ["Fc1ccc2[nH]c3c(NCCCN4CCOCC4)ncnc3c2c1", "72.7% (inactive)"],
  ["C[C@]12CC[C@H]3[C@@H](CC=C4C[C@@H](O)CC[C@@]43C)[C@@H]1CC[C@@H]2C(=O)C/C=N/O", "84.4% (inactive)"],
  ["CN(C)CCCN(Cc1ccccc1O)C(=S)Nc1ccc(Cl)cc1", "104% (inactive)"],
  ["CC(C)OP(=O)(O)c1ncc(-c2ccc(C(F)(F)F)cc2)c(NC2CCCCCC2)n1", "97.5% (inactive)"],
  ["CCCCCCCCCCCCCCCCCBr", "104% (inactive)"],
  ["Cc1nnc2c3nnc(-c4ccc(Cl)cc4)n3c3ccccc3n12", "107% (inactive)"],
  ["COc1cccc(C2(C)Nc3ccccc3-c3nc4ccccc4n32)c1 (configuration not stated)", "97% (inactive)"],
  ["Cc1ccc(C(=O)O)c(N)c1C", "106% (inactive)"],
  ["CCCCCCCCCCCCc1ccc(C(=O)/C=C/C(=O)O)cc1", "100% (inactive)"],
  ["COc1cc(CSc2nc3ccc(Cl)cc3c(=O)n2-c2ccccc2)cc(OC)c1OC", "75.5% (inactive)"],
  ["COc1cccc(C(=O)NNc2nc(N3CCN(C4CCCCC4)CC3)nc(N3CCN(C(c4ccccc4)c4ccccc4)CC3)n2)c1", "31.1% (inactive)"],
  ["Nc1c(C(=O)Nc2ccccc2F)sc2nc3c(cc12)C(=O)CCC3", "-4.39% (active)"],
  ["CCCCOCC(=O)NC(NP(=O)(N(C)C)N(C)C)C(Cl)(Cl)Cl (configuration not stated)", "105% (inactive)"],
  ["O=c1ccc2nc(-c3ccccc3)nn(-c3ccccc3)c-2c1", "96.2% (inactive)"],
  ["COc1ccc2nc(C)cc(Nc3ccc(Cl)cc3)c2c1", "102% (inactive)"]
]}
